Target: T1, human IL-31 (human, UniProt Q6EBC2 24-164)
T1 sequence (looked up): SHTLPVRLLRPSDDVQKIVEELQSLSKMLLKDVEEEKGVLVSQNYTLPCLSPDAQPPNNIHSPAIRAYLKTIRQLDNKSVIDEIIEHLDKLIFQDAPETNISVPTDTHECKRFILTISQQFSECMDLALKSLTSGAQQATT
Test: cell-based or functional assay
QUANTITY KIND: IC50, neutralization of hIL-31-induced signaling in IL-31RA/OSMR dimerization assay (ng/mL)
Only the number, expressed in ng/mL, is required.

Here are 3 binders together with their reported answers.
- PRO1903 (scFv) AFQLTQSPSSLSASVGDRVTITCQASQSIESWLAWYQQKPGKPPKLLIYQASKLASGVPSRFSGSGSGTDYTLTISSLQPEDFATYYCQTYYGGGHIGWGFGTGTKVTVLGGGGGSGGGGSGGGGSGGGGSQSQLVESGGGLVQPGGSLRLSCAASGFSFSANYWICWVRQAPGKGLEWIVCIYIGSRADTYYAPWAKGRFTISKDNSKNTVYLQMNSLRAEDTAVYFCARFSSGIYDLDRFFLWGQGTLVTVSS: 7.98
- PRO1900 (scFv) AFQLTQSPSSLSASVGDRVTITCQASQSIDSWLAWYQQKPGKPPKLLIYQASKLASGVPSRFSGSGSGTDYTLTISSLQPEDFATYYCQTYYGGGHIGWGFGTGTKVTVLGGGGGSGGGGSGGGGSGGGGSQSQLVESGGGRVQPGGSLRLSCAASGFSFSANYWICWVRQAPGKGLEWIVCIYIGSRADTYYAPWAKGRFTISKDNSKNTVYLQMNSLRAEDTATYFCARFSSGIYDLDRFFLWGQGTQVTVSS: 8.21
- PRO1902 (scFv) AFQLTQSPSSLSASVGDRVTITCQASQSIDSWLAWYQQKPGKPPKLLIYQASKLASGVPSRFSGSGSGTDYTLTISSLQPEDFATYYCQTYYGGGHIGWGFGTGTKVTVLGGGGGSGGGGSGGGGSGGGGSQSQLVESGGGLVQPGGSLRLSCAASGFSFSANYWICWVRQAPGKGLEWIVCISIGSRADTYYAPWAKGRFTISKDNSKNTVYLQMNSLRAEDTAVYFCARFSSGIYDLDRFFLWGQGTLVTVSS: 371

Briefly, IC50, neutralization of hIL-31-induced signaling in IL-31RA/OSMR dimerization assay measured for PRO1901 (scFv) AFQLTQSPSSLSASVGDRVTITCQASQSIDSWLAWYQQKPGKPPKLLIYQASKLASGVPSRFSGSGSGTDYTLTISSLQPEDFATYYCQTYYGGGHIGWGFGTGTKVTVLGGGGGSGGGGSGGGGSGGGGSQSQLVESGGGSVQPGGSLRLSCAASGFSFSANYWICWVRQAPGKGLEWIVCIYIGSRADTYYAPWAKGRFTISKDNSKNTVYLQMNSLRAEDTATYFCARFSSGIYDLDRFFLWGQGTQVTVSS : 8.07
